Target: T1, Axl (Homo sapiens, UniProt P30530)
T1 sequence (P30530 26-451 limits assumed): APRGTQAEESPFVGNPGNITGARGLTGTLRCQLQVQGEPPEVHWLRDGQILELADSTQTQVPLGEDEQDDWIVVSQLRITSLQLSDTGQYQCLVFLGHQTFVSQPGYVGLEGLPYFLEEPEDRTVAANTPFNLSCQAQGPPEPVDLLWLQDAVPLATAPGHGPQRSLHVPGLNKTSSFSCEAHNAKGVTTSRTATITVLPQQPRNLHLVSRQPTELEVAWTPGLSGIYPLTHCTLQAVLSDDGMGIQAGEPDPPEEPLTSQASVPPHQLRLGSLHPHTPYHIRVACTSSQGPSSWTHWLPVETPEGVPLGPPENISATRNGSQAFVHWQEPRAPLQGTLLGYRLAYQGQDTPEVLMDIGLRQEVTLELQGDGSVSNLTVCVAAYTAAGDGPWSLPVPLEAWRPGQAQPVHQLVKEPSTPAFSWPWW
Assay: Affinity ELISA of CPE mutant antibodies for binding to Axl at pH 6.0 over pH 7.4
Settings: light chain variable region mutants; 1:9 dilution
I'd be grateful if you could share measured Affinity ELISA CPE mutant ratio (1:9, pH 6.0/7.4) for these entries.
// return just the number, without any unit appended

I have this molecule here, LC-A034Q (antibody, V domains shown) VH: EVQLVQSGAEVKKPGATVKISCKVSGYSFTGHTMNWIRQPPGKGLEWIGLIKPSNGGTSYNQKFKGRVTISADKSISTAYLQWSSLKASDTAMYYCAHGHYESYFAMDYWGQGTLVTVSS VL: DIQMTQSPSSLSASVGDRVTITCKASQDVSSAVQWYQQKPGQAPRLLIYWASTRHTGVPSRFSGSGSGTEFTLTISSLQPDDFATYYCQEHFSTPLTFGQGTKVEIK , and I need its recorded Affinity ELISA CPE mutant ratio (1:9, pH 6.0/7.4).
1.409

And then LC-L096R (antibody, V domains shown) VH: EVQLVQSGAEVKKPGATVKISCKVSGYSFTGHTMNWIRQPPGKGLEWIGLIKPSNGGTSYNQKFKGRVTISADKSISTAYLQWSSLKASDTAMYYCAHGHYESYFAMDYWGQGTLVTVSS VL: DIQMTQSPSSLSASVGDRVTITCKASQDVSSAVAWYQQKPGQAPRLLIYWASTRHTGVPSRFSGSGSGTEFTLTISSLQPDDFATYYCQEHFSTPRTFGQGTKVEIK , what is it?
2.176

And then LC-H091V (antibody, V domains shown) VH: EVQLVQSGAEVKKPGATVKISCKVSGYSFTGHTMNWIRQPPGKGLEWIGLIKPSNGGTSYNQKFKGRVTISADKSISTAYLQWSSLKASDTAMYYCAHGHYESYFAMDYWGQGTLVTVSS VL: DIQMTQSPSSLSASVGDRVTITCKASQDVSSAVAWYQQKPGQAPRLLIYWASTRHTGVPSRFSGSGSGTEFTLTISSLQPDDFATYYCQEVFSTPLTFGQGTKVEIK , what is it?
1.171
